Assignment: determine reported RP-LC retention time for the given compounds.
# experiment: gradient 5% acetonitrile 3 min, to 50% in 2 min, to 85% in 15 min, held 3 min, 100 µL/min
# condition.notes: column: Zorbax Extend-C18 2.1 x 50 mm; eluents: water / acetonitrile, 0.1% formic acid
Your answer should be a plain number; it is taken to be in s.

What does the data say about its RP-LC retention time? Entry: "CSc1ccccc1NC(=O)CCCn1cccc1" 1000

Now this one: "COc1ccc(NC(=O)C2CCN(c3cncnc3N3CCCCC3)CC2)cc1" 670

Now this one: "CN1CCN(CCCNC(=O)c2cc3occc3c(Nc3ccc(Cl)cc3)n2)CC1" 620

Now this one: "O=C(NCCn1c(=O)n(Cc2ccc(F)cc2)c2cccnc21)c1ccsc1" 762
